From: paper PMC10726135

Entries and their binding signal values follow.
experimental system: HNF4alpha2 (COS-7 nuclear extract) (Homo sapiens, UniProt P41235 1-474)
Sequence: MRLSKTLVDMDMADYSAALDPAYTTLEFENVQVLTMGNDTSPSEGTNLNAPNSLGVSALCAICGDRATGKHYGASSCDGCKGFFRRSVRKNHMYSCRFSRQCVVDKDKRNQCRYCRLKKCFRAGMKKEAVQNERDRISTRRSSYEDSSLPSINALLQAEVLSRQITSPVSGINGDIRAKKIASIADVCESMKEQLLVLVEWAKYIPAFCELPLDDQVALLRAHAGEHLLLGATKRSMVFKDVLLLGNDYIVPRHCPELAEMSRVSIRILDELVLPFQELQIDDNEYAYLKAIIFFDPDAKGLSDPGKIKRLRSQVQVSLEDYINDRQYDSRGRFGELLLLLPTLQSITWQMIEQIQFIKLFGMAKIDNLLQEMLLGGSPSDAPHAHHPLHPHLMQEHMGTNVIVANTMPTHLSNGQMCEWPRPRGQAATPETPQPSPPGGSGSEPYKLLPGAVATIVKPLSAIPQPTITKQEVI
test details: protein-binding microarray; COS-7 nuclear extract on double-stranded Agilent 4x180k PBM; binding buffer, salt, pH and temperature not given in the material; high values mean tight binding
setup conditions: chain copies: 2; label: 3' end of strand 1 on the slide; dsDNA, one strand shown
In all, about 18,000 sequences were measured (“log2 normalized intensity”: median about 0.39, highest 2% from about 6.6 on). Many of the other results were omitted from the sample, so the highest values are more common in it than they were.

// below: answered sequences
[[record]]
residues = "ACTTTGGGGAAATGACCTTTGTCCAGCTGTGCCTAGGGAGATTAGAGTATCGGTCGA"
readout_label = "binding signal"
reported_result = "6.74 log2 normalized intensity"

[[record]]
residues = "AATTTTTTTTTCTTATCTCACTGGATGTGTGCCTAGGGAGATTAGAGTATCGGTCGA"
readout_label = "binding signal"
reported_result = "2.22 log2 normalized intensity"

[[record]]
residues = "ATGTGGTATTAACATGTAAATATGACCTTTGCCTAGGGAGATTAGAGTATCGGTCGA"
readout_label = "binding signal"
reported_result = "7.12 log2 normalized intensity"

[[record]]
residues = "TGATGACTTTTGACCCCAGGGGAAACTCCAGCCTAGGGAGATTAGAGTATCGGTCGA"
readout_label = "binding signal"
reported_result = "3.99 log2 normalized intensity"

[[record]]
residues = "GGGTGGTGGTTACCGGCAGAGGCTGCAGAGGCCTAGGGAGATTAGAGTATCGGTCGA"
readout_label = "binding signal"
reported_result = "0.249 log2 normalized intensity"

[[record]]
residues = "AATGACCTTTGTCCAGCTGTGCCGAGCCTGGCCTAGGGAGATTAGAGTATCGGTCGA"
readout_label = "binding signal"
reported_result = "4.02 log2 normalized intensity"


Consider `GTAGTGGGGAGGGCATGGACTTTGGAATTAGCCTAGGGAGATTAGAGTATCGGTCGA` . Its measured binding signal is 7.37 log2 normalized intensity

So for `GAATGACTTTGGGGAAATGACCTTTGTCCAGCCTAGGGAGATTAGAGTATCGGTCGA` , the logged binding signal turned out to be 8.8 log2 normalized intensity

// binding signal lookup, sequence = `AGGGGCTGCTGGGAGTTGTAGTTTTTTGGGGCCTAGGGAGATTAGAGTATCGGTCGA` , result: 1.54 log2 normalized intensity

====

experimental system: HNF4alpha2 (COS-7 nuclear extract) (Homo sapiens, UniProt P41235 1-474)
Sequence: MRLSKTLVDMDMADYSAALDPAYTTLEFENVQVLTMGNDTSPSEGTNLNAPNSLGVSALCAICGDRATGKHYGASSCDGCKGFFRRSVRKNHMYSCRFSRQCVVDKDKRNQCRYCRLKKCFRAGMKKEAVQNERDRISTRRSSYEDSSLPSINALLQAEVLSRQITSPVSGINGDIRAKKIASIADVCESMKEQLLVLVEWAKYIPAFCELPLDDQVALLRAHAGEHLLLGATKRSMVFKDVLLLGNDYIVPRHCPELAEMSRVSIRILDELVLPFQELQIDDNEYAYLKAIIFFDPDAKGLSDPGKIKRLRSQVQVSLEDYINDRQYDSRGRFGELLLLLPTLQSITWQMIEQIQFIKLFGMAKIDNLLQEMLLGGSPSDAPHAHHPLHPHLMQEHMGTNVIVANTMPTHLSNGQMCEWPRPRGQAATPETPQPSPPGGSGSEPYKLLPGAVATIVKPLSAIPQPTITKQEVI
test details: protein-binding microarray; COS-7 nuclear extract on double-stranded Agilent 4x180k PBM; binding buffer, salt, pH and temperature not given in the material; high values mean tight binding
setup conditions: chain copies: 2; label: 3' end of strand 1 on the slide; dsDNA, one strand shown
Whole data set: some 18,000 sequences, median “log2 normalized intensity” near 0.39, cut for the highest 2% near 6.6. The list comes from a sample in which the highest values are over-represented; it also holds close analogues and randomly drawn sequences.
The label is 1.0 for binding signal below 3 log2 normalized intensity and 0.0 for binding signal equal to or exceeding 3 log2 normalized intensity.

Sample answers from the record:
[[record]]
residues = "GAGGCTCAGACCTGACCTTTGGATTCCCAGGCCTAGGGAGATTAGAGTATCGGTCGA"
answer_label = 0.0

[[record]]
residues = "GGATCCCATTCATGTGGGTCAACAGACAAAGCCTAGGGAGATTAGAGTATCGGTCGA"
answer_label = 1.0

[[record]]
residues = "GGTATGTTTGTGATATTGTGAAATATATATGCCTAGGGAGATTAGAGTATCGGTCGA"
answer_label = 1.0

[[record]]
residues = "AAACAATGACCTCTGCACCCTTCCCTGAGTGCCTAGGGAGATTAGAGTATCGGTCGA"
answer_label = 0.0

[[record]]
residues = "GTCAAGCAATGATCTTCATGAACTTCTGTCGCCTAGGGAGATTAGAGTATCGGTCGA"
answer_label = 1.0


binding signal strictly < 3 log2 normalized intensity for this sequence? `TGGGCCCCACAGTGCATCTGATAAGGTTGTGCCTAGGGAGATTAGAGTATCGGTCGA`
1.0

Given `ATTGACAAAGACCAGTGCTCTTTCTTCTCTGCCTAGGGAGATTAGAGTATCGGTCGA` , is recorded binding signal strictly lower than 3 log2 normalized intensity?
1.0

A record lists `TTTGAAAGAAAGAGACCTTTACCCTGACCTGCCTAGGGAGATTAGAGTATCGGTCGA` . Is its binding signal below 3 log2 normalized intensity?
0.0

====

experimental system: HNF4alpha2 (COS-7 nuclear extract) (Homo sapiens, UniProt P41235 1-474)
Sequence: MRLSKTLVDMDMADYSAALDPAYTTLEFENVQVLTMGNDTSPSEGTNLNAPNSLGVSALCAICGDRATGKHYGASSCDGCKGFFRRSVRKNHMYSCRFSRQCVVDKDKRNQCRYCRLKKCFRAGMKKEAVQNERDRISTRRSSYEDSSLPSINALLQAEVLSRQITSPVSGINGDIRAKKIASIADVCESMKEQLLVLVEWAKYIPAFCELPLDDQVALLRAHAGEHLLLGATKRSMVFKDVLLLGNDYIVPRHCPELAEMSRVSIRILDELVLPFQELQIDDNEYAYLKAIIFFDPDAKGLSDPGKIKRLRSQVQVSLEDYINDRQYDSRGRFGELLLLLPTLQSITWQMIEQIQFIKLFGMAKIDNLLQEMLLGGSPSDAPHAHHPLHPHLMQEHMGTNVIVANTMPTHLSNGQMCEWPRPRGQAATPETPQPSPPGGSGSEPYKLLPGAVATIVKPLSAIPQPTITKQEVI
test details: protein-binding microarray; COS-7 nuclear extract on double-stranded Agilent 4x180k PBM; binding buffer, salt, pH and temperature not given in the material; high values mean tight binding
setup conditions: chain copies: 2; label: 3' end of strand 1 on the slide; dsDNA, one strand shown
Whole data set: some 18,000 sequences, median “log2 normalized intensity” near 0.39, cut for the highest 2% near 6.6. This is one part of a sample in which the highest values are shown more often than they occur.
readout label: binding signal (log2 normalized intensity)
Only the number, expressed in log2 normalized intensity, is required.

Before answering, review these 10 worked examples.
[[record]]
residues = "CAAGAGTGACCTTTGCTCCAGTTCCCAATAGCCTAGGGAGATTAGAGTATCGGTCGA"
experimental_system = "HNF4alpha2 (COS-7 nuclear extract) (Homo sapiens, UniProt P41235 1-474)"
reported_result = 6

[[record]]
residues = "ACACACACATTGCAGTATGCCCCCCCACCCGCCTAGGGAGATTAGAGTATCGGTCGA"
experimental_system = "HNF4alpha2 (COS-7 nuclear extract) (Homo sapiens, UniProt P41235 1-474)"
reported_result = 6.13

[[record]]
residues = "ACTGCATTCCCTTTCTCCTCCCCTCCCCTCGCCTAGGGAGATTAGAGTATCGGTCGA"
experimental_system = "HNF4alpha2 (COS-7 nuclear extract) (Homo sapiens, UniProt P41235 1-474)"
reported_result = 4.31

[[record]]
residues = "TTCCTCCCACTCTGACATCCCCCTTTCTCTGCCTAGGGAGATTAGAGTATCGGTCGA"
experimental_system = "HNF4alpha2 (COS-7 nuclear extract) (Homo sapiens, UniProt P41235 1-474)"
reported_result = 3.26

[[record]]
residues = "CATTTTTTTCCACCCTCCCCTCCCCCTCCTGCCTAGGGAGATTAGAGTATCGGTCGA"
experimental_system = "HNF4alpha2 (COS-7 nuclear extract) (Homo sapiens, UniProt P41235 1-474)"
reported_result = 6.28

[[record]]
residues = "ATTCCCTTTCTCCTCCCCTCCCCTCCCCCCGCCTAGGGAGATTAGAGTATCGGTCGA"
experimental_system = "HNF4alpha2 (COS-7 nuclear extract) (Homo sapiens, UniProt P41235 1-474)"
reported_result = 6.91

[[record]]
residues = "CCCTCCTCCTTTTTTTCCCCTCCCTCAGCTGCCTAGGGAGATTAGAGTATCGGTCGA"
experimental_system = "HNF4alpha2 (COS-7 nuclear extract) (Homo sapiens, UniProt P41235 1-474)"
reported_result = 3.64

[[record]]
residues = "TTTTCCACCCTCCCCTCCCCCTCCTCCCCTGCCTAGGGAGATTAGAGTATCGGTCGA"
experimental_system = "HNF4alpha2 (COS-7 nuclear extract) (Homo sapiens, UniProt P41235 1-474)"
reported_result = 7.13

[[record]]
residues = "CCCCCCACCCCACACACACACAGCATTCCAGCCTAGGGAGATTAGAGTATCGGTCGA"
experimental_system = "HNF4alpha2 (COS-7 nuclear extract) (Homo sapiens, UniProt P41235 1-474)"
reported_result = 5.05

[[record]]
residues = "TATGCCCCCCCACCCCACACACACACAGCAGCCTAGGGAGATTAGAGTATCGGTCGA"
experimental_system = "HNF4alpha2 (COS-7 nuclear extract) (Homo sapiens, UniProt P41235 1-474)"
reported_result = 6.17


Record `TTCTTTTTTTTTTTTTTTTTTTTTTGAGATGCCTAGGGAGATTAGAGTATCGGTCGA` . Reported binding signal: 3

Summary for this sequence, `CTCGGCATCATGCCCTTTGGCCCCCAGAGCGCCTAGGGAGATTAGAGTATCGGTCGA` : binding signal is 6.14

The sequence identified as `ATGCCAGATGACCTTTGCCCTTGACTTTTTGCCTAGGGAGATTAGAGTATCGGTCGA` registered its binding signal at 8.55
